The entries below are paired with their reported AC50.
biological target: Cytochrome P450 2C9 (Homo sapiens, UniProt P11712)
Sequence (P11712 whole entry): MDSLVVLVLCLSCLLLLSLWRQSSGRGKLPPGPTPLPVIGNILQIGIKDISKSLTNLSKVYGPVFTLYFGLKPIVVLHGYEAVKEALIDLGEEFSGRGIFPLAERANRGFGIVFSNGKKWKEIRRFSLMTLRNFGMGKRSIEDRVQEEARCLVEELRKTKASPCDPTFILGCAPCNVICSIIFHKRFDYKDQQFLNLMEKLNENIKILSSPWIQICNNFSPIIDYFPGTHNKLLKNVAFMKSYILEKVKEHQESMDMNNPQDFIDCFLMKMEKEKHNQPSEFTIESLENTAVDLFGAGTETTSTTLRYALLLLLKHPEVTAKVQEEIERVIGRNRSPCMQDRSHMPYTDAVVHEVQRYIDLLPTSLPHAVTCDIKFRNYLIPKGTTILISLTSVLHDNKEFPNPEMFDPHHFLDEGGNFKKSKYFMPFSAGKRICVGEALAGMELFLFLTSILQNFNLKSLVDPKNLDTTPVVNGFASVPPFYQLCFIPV
EXPERIMENTAL_READOUT: AC50

| COMPOUND | EXPERIMENTAL_READOUT | VAL |
| --- | --- | --- |
| c1ccc2sc(NC3=NCN(C4CCCCCC4)CN3)nc2c1 | AC50 | 39.8 µM (inconclusive) |
| CCOc1ccc(-n2c(SCC(=O)Nc3ccc(OC)cc3)nc3c(c2=O)SCC3)cc1 | AC50 | 3.55 µM (inconclusive) |
| Cc1ccc(NC(=O)c2cc(NC(=O)CCC(=O)O)ccc2N2CCCCC2)cc1 | AC50 | 14.1 µM (inconclusive) |
| CC(C)CC(=O)Nc1ccc2c(c1)oc1ccccc12 | AC50 | 8.91 µM (inconclusive) |
| CCc1cc[n+](C2=Nc3ccccc3[N-]C2=C(C#N)C#N)cc1 | AC50 | 14.1 µM (inconclusive) |
| O=c1cnc2cnc(Nc3ccccc3)nc2n1Cc1ccc(F)cc1 | AC50 | 7.94 µM (inconclusive) |
| COc1cc2c(cc1OC)C(c1ccc(N)cc1)=NNC(=O)C2 | AC50 | 39.8 µM (inconclusive) |
| COC(=O)[C@H]1[C@H](c2ccccc2)C(=O)[C@@]2(O)c3ccccc3O[C@@]12c1ccccc1 | AC50 | 6.31 µM (inconclusive) |
| CC1=C(C(N)=O)C(c2ccccn2)n2nc(SCc3ccccc3Cl)nc2N1 (stereo not given) | AC50 | 20 µM (inconclusive) |
| CC(=O)Nc1ccc(S(=O)(=O)NCC2CCC(C(=O)N3CCN(c4ccccn4)CC3)CC2)cc1 (stereo not given) | AC50 | 3.98 µM (inconclusive) |

###

test: Late stage assay provider results from the probe development effort to identify inhibitors of GSTO1: luminescence-based […] dose response assay to determine cytotoxicity of inhibitor compounds. [Related pubchem assays (depositor defined):AID1515, AID1974, AID2175, AID2176, AID463081, AID463098, AID463101, AID463102, AID463110, AID463142] Panel member name: Assay 1: % Surviving cells, serum-free media; assay type: toxicity, cell-based
Activity calls are given as the source filed them.
EXPERIMENTAL_READOUT: CC50

| COMPOUND | EXPERIMENTAL_READOUT | VAL |
| --- | --- | --- |
| COc1ccc(N(C(=O)CCl)C(C(=O)NC2CCCCC2)c2cccnc2)cc1 (stereo unspecified) | CC50 | > 45 µM (inactive) |

###

These molecules were tested on Cytochrome P450 3A4 (Homo sapiens); AC50 is the recorded read-out.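 Further: CYP3A4 tested as one member of a cytochrome P450 panel screen.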
Sequence (P08684 whole entry): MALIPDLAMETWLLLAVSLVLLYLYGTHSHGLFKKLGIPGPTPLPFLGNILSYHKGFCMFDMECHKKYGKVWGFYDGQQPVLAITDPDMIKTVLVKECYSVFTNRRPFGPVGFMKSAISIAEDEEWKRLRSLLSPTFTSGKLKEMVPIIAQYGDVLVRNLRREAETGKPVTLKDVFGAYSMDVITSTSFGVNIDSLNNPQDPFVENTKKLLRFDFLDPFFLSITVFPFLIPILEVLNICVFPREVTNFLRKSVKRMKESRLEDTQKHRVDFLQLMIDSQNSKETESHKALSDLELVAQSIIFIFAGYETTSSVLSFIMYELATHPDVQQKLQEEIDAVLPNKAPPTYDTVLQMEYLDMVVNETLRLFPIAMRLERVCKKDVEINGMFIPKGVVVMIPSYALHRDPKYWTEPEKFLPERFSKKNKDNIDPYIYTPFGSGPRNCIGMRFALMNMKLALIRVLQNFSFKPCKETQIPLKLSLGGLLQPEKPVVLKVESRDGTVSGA

| MOLECULE | AC50 |
| --- | --- |
| CN(C)c1ccccc1CN1CCCN(Cc2ccccc2N(C)C)C1c1ccncc1 | 3.16 µM (inconclusive) |
| Cc1nc2cnc(N(C)C)nc2n(CCc2ccccc2)c1=O | 31.6 µM (inconclusive) |
| CCc1cc[n+](C2=Nc3ccccc3[N-]C2=C(C#N)C#N)cc1 | 15.8 µM (inconclusive) |
| CC(=O)N1CCC[C@@]2(CCN(Cc3ccccc3)C2)C1 | 39.8 µM (inconclusive) |
| COCCn1c(=O)cnc2cnc(OCc3ccccc3)nc21 | 20 µM (inconclusive) |
| c1ccc2sc(NC3=NCN(C4CCCCCC4)CN3)nc2c1 | 7.94 µM (inconclusive) |
| COc1ccc(C(=O)N2CCC[C@@]3(CCN(C(=O)NC(C)C)C3)C2)cc1 | 20 µM (inconclusive) |
| COc1ccc(-c2nc3cnc(N4CCN(C)CC4)nc3n(CCC#N)c2=O)cc1 | 39.8 µM (inconclusive) |
| CCOc1ccc(-n2c(SCC(=O)Nc3ccc(OC)cc3)nc3c(c2=O)SCC3)cc1 | 7.94 µM (inconclusive) |
| O=C(CN1CCc2ccccc21)NC(=O)NCc1ccco1 | 28.2 µM (inconclusive) |
| CC(C)NC(=O)N1CCCC2(CCN(C(=O)c3csnn3)CC2)C1 | 25.1 µM (inconclusive) |
| FC(F)(F)c1ccccc1-c1ccc2ncnc(N3CCOCC3)c2c1 | 5.01 µM (inconclusive) |
| CC(C)CN1CC[C@@]2(CCCN(S(=O)(=O)c3ccccc3)C2)C1 | 5.01 µM (inconclusive) |
| CN1CCN(C2=Cc3ccccc3Oc3ccc(Cl)cc32)CC1 | 31.6 µM (inconclusive) |
| CC12CCC(C(=O)Nc3ccccc3Br)(C/C1=N\O)C2(C)C (centres undefined) | 20 µM (inconclusive) |
| CC1=C(C(=O)OCc2ccccc2)C(c2ccc([N+](=O)[O-])cc2)NC(=O)N1CCCCCC(=O)O (centres undefined) | 10 µM (inconclusive) |
| O=C(OCC(=O)c1cccs1)c1cccc(C(=O)OCC(=O)c2cccs2)n1 | 35.5 µM (inconclusive) |
| Cc1cnc(CNc2ncncc2-c2ccccc2C#N)cn1 | 12.6 µM (inconclusive) |
| COC(=O)[C@H]1[C@H](c2ccccc2)C(=O)[C@@]2(O)c3ccccc3O[C@@]12c1ccccc1 | 3.16 µM (inconclusive) |
